Parameter growth: see the listing below.
test system: OVCAR-3 ovarian; assay: NCI-60 one-dose screen, 48 h (100 = growth as untreated, 0 = no growth, -100 = all killed); details: 10 µM unless noted
This is part of a sample that, as a whole, favours compounds with a hit. Of some 83,000 tested, about 20% had one in any assay.
Your answer should be a plain number; it is taken to be in %.

Example entries begin here.
molecule	measured
O=C1C=C(c2ccccc2)C(O)(c2ccccc2)C1 (stereo not drawn)	112
CCN(CC)CCCC(C)NC(=S)N/N=C(\C)c1ccccn1 (stereo not drawn)	51

Here is another molecule to look at.
Problem: Returns the measured growth for the input molecule. Input: CCN(Cc1ccc(Cl)c(Cl)c1)c1ccc2nc(N)nc(N)c2c1C
Result: -93.2

Origin of measurements: PubChem BioAssay (NCI)
